# System: S. aureus RN4220
# EXPERIMENT NOTES: growth inhibition call (relative growth <= 0.2)
# MEASUREMENT CONDITIONS: 50 µM
Among all 39,000 compounds or so, about 500 (1.3%) were called active. The sample as a whole holds a higher share of actives than the screen did.
Just give me one of these, please: active, inactive

// query I'd appreciate the recorded outcome for CCN(CC)S(=O)(=O)c1ccc(Cn2nc(C(=O)Nc3ccc(N4CCCCC4)cc3)c3ccccc32)cc1 from this test.
// result inactive

// query Which outcome was entered for the molecule CC(C)=CCCC1(C)C=Cc2c(O)c3c(c(CC=C(C)C)c2O1)OC12C(=CC4CC1C(C)(C)OC2(CC=C(C)C(=O)O)C4=O)C3=O (centres undefined) in this test?
// result inactive

// query Outcome logged for c1nc(N2CCN3CCC[C@H]3C2)c2[nH]cnc2n1 in this assay:
// result inactive

// query Please state the recorded outcome for this molecule: CC(C)[C@@H](Br)C(=O)NC(N)=O
// result inactive

// query Which outcome did this test record for the molecule CCCC(=O)c1c(O)[nH]c(=O)[nH]c1=O ?
// result inactive

// query Can you look up the reported call for CN(C)[C@@H]1C(=O)[C@H](C(N)=O)C(=O)[C@@]2(O)C(=O)[C@@H]3C(=O)c4c(O)cccc4[C@@](C)(O)[C@H]3C[C@@H]12 for me?
// result active

// query Kindly provide the recorded test outcome for the following molecule: c1ccc2cc3c(cc2c1)-c1cccc2cccc-3c12
// result inactive

// query Per the assay record, what outcome was assigned to CO[C@@H]1C[C@@H](C[C@H]2CC[C@H](C)[C@H]([C@@H](C)C(=O)O)O2)O[C@]2(O[C@](C)([C@H]3CC[C@@](C)([C@H]4O[C@@H]([C@H]5O[C@@](O)(CO)[C@H](C)C[C@@H]5C)C[C@@H]4C)O3)C[C@H]2C)[C@@H]1C ?
// result active

// query Hey, what did the test say about O=C(c1ccccc1)C12CN3CN(CN(C3)C1)C2 ?
// result inactive

----------
# System: S. aureus RN4220
# EXPERIMENT NOTES: growth inhibition call (relative growth <= 0.2)
# MEASUREMENT CONDITIONS: 50 µM
The campaign covered roughly 39,000 compounds. About 500 (1.3%) were called active. This is one part of a sample in which actives are shown more often than they occur.
MEASURE NAME: growth inhibition call

COMPOUND: Cc1cc[n+](C)cc1
growth inhibition call: inactive
--
COMPOUND: O=C1[O][SbH]23[O]C(=O)[C@H]([O]2)[C@H]2[O][SbH]4([O]C(=O)[C@H]([O]4)[C@H]1[O]3)[O]C2=O
growth inhibition call: active
--
COMPOUND: CCOP(=S)(OCC)Oc1nc(Cl)c(Cl)cc1Cl
growth inhibition call: inactive
--
COMPOUND: Oc1ccccc1-c1ccccc1O
growth inhibition call: inactive
--
COMPOUND: COP(=S)(OC)Oc1cc(Cl)c(Cl)cc1Cl
growth inhibition call: active

get_value(item= O=C1O[C@H]2CN[C@@H]1C2 , readout=growth inhibition call) returns inactive

Per the records, this compound ( CC(C)[C@@H]1NC[C@@H]2CCCN2C1=O ) has growth inhibition call equal to inactive

// sample COc1cccc2c1C(=O)c1c(O)c3c(c(O)c1C2=O)C[C@@](O)(C(=O)CO)C[C@@H]3O[C@H]1C[C@H](N2CCO[C@H](OC)C2)[C@H](O)[C@H](C)O1 , its growth inhibition call was active

----------
# System: S. aureus RN4220
# EXPERIMENT NOTES: growth inhibition call (relative growth <= 0.2)
# MEASUREMENT CONDITIONS: 50 µM
Screen size: about 39,000 compounds; about 500 (1.3%) were called active. Many of the other results were omitted from the sample, so actives are more common in it than they were.
MEASURE NAME: growth inhibition call

Example cases with answers are listed next.
COMPOUND: O=[N+]([O-])C(Br)(CO)CO
OBSERVED VALUE: active
//
COMPOUND: CN[C@@H]1[C@@H](O)[C@@H](O[C@@H]2[C@@H](O)[C@H](O[C@H]3O[C@H](CN)CC[C@H]3N)[C@@H](N)C[C@H]2N)OC[C@]1(C)O.CN[C@@H]1[C@@H](O)[C@@H](O[C@@H]2[C@@H](O)[C@H](O[C@H]3O[C@H]([C@@H](C)N)CC[C@H]3N)[C@@H](N)C[C@H]2N)OC[C@]1(C)O.CN[C@@H]1[C@@H](O)[C@@H](O[C@@H]2[C@@H](O)[C@H](O[C@H]3O[C@H]([C@@H](C)NC)CC[C@H]3N)[C@@H](N)C[C@H]2N)OC[C@]1(C)O
OBSERVED VALUE: inactive
//
COMPOUND: Cc1ccc(OC(=O)N(C)C[C@H]2OCc3ccccc3-c3c(n(C)c4ccccc34)C(=O)N([C@@H](C)CO)C[C@@H]2C)cc1
OBSERVED VALUE: inactive
//
COMPOUND: C=CCOC(Cn1ccnc1)c1ccc(Cl)cc1Cl.O=S(=O)(O)O (stereo unspecified)
OBSERVED VALUE: active
//
COMPOUND: CN[C@@H]1[C@@H](O)[C@@H](O[C@@H]2[C@H](O)[C@@H](O[C@H]3O[C@H]([C@@H](C)O)[C@@H](O)[C@H](O)[C@H]3N)[C@H](N)C[C@@H]2N)OC[C@]1(C)O
OBSERVED VALUE: inactive

Value of growth inhibition call reported for the compound O=[N+]([O-])c1ccc([As](=O)(O)O)cc1 is inactive

# growth inhibition call (compound: CC(=O)OC1CC(OC2C(O)CC(OC3C(O)CC(OC4CCC5(C)C(CCC6C5CC(O)C5(C)C(C7=CC(=O)OC7)CCC65O)C4)OC3C)OC2C)OC(C)C1OC1OC(CO)C(O)C(O)C1O (stereo unspecified) ) is inactive

compound [O-][n+]1ccccc1[S][Zn][S]c1cccc[n+]1[O-] , growth inhibition call observed: active

----------
# Test system: S. aureus RN4220
# EXPERIMENT NOTES: growth inhibition call (relative growth <= 0.2)
# MEASUREMENT CONDITIONS: 50 µM
In all, about 39,000 compounds went through this assay and about 500 (1.3%) were called active. The sample holds actives, similar compounds and a random draw of the others, so the mix is not that of the screen.
Please answer using one outcome listed in t for active, f for inactive

// query Which outcome was entered for the molecule Cn1ncnc2c(=O)n(C)c(=O)nc1-2 in this test?
// result f

// query Recorded call for CCCCC(=O)N1C[C@@H]2CCNC[C@@H]21 ?
// result f

// query What did the test return for CC[C@@]1(O)C[C@H](O[C@H]2C[C@H](N(C)C)[C@H](O)[C@H](C)O2)c2c(cc3c(c2O)C(=O)c2c(O)ccc(O)c2C3=O)[C@H]1C(=O)OC ?
// result f

// query Hi, do you know how C#CCOS(=O)OC1CCCCC1Oc1ccc(C(C)(C)C)cc1 (stereo unspecified) came out in this test?
// result f

// query Please indicate how the test categorized O=C1C=CC(=O)c2c(O)cccc21 .
// result f

// query Recorded test call requested for C[C@@H]1CN([C@H](C)CO)C(=O)CCCn2nncc2CO[C@@H]1CN(C)C(=O)Oc1ccc2ccccc2c1
// result f

// query Call for entry COCCCNC(=O)C1[C@@H]2CC[C@H]1CNC2 (stereo partly specified) :
// result f

// query Record request — test call for C[C@H]1O[C@H](C[N+](C)(C)C)C[C@@H]1O
// result f

// query Test call, this molecule: COP(=S)(OC)Oc1ccc(Sc2ccc(OP(=S)(OC)OC)cc2)cc1
// result f

// query Please indicate how the test categorized O=C(O)C(Cl)Cl.[NaH] .
// result f

// query What outcome does the record of this test show for C[C@@]1(O)[C@H](O)[C@@H](CO)O[C@H]1n1ccc2c(N)ncnc21 ?
// result f

// query Hi, do you know how C[CH2][Hg][S]c1ccccc1C(=O)[O-].[Na+] came out in this test?
// result t

// query Returns: the outcome recorded for Cc1nc2c(=O)n(C)c(=O)nc-2n(C)n1 in this assay.
// result f

// query What outcome does the record of this test show for Cl.Oc1noc2c1CCNC2 ?
// result f

// query Would you mind telling me which call this test gave C=C(CCCCCCCCCCCCCCCC)OOC[C@@H](COP(=O)(ON)O[C@@H]1[C@H](O)[C@H](O)[C@@H](OP(=O)(O)ON)[C@H](OP(=O)(O)ON)[C@H]1O)OOC(=C)CC/C=C/C/C=C/C/C=C/C/C=C/CCCCC (stereo partly specified) ?
// result f

// query For this molecule, state the assay outcome: C=C(C)[C@@H]1CCC(C)=C[C@H]1c1c(O)cc(CCCCC)cc1O
// result t

// query Outcome logged for CC(C)(CN)CNc1ccc([N+](=O)[O-])c2cccnc12 in this assay:
// result f

// query Would you mind telling me which call this test gave N[C@@]1(C(=O)O)CC[C@@H](C(=O)O)C1.N[C@]1(C(=O)O)CC[C@H](C(=O)O)C1 ?
// result f

// query State the result this test recorded for C[N+]1(C)C2CC(OC(=O)C(CO)c3ccccc3)CC1C1OC12.[Br-] (stereo unspecified) .
// result f

// query Please indicate how the test categorized CNCC(=O)c1ccc(O)c(O)c1 .
// result f

// query What is the recorded call for this molecule in the test? COC(=O)C[C@@H]1CC[C@@H]2NC[C@H](O)COC[C@H]2O1
// result f

// query I'd appreciate the recorded outcome for CCCCOC(=O)c1ccccc1C(=O)OCCCC from this test.
// result f

// query What outcome does the record of this test show for CC(C)CC(CN)CC(=O)O (stereo unspecified) ?
// result f

// query State the result this test recorded for CC1=CC(=O)c2c(O)cccc2C1=O .
// result t

// query I would be grateful if you could indicate the recorded call for C=C[C@H]1[C@H](O[C@@H]2O[C@H](CO)[C@@H](O)[C@H](O)[C@H]2O)OC=C2C(=O)OCC[C@H]21 .
// result f

// query Recorded test outcome, item CN1C(=O)[C@]23CC4=CC=C[C@H](O)[C@H]4N2C(=O)[C@@]1(CO)SS3
// result f
